Target: human GlyT-2 (Homo sapiens, UniProt Q9Y345)
Construct: elsewhere 'preferably QT-6 cells derived from quail fibroblasts'
Sequence (Q9Y345 1-797): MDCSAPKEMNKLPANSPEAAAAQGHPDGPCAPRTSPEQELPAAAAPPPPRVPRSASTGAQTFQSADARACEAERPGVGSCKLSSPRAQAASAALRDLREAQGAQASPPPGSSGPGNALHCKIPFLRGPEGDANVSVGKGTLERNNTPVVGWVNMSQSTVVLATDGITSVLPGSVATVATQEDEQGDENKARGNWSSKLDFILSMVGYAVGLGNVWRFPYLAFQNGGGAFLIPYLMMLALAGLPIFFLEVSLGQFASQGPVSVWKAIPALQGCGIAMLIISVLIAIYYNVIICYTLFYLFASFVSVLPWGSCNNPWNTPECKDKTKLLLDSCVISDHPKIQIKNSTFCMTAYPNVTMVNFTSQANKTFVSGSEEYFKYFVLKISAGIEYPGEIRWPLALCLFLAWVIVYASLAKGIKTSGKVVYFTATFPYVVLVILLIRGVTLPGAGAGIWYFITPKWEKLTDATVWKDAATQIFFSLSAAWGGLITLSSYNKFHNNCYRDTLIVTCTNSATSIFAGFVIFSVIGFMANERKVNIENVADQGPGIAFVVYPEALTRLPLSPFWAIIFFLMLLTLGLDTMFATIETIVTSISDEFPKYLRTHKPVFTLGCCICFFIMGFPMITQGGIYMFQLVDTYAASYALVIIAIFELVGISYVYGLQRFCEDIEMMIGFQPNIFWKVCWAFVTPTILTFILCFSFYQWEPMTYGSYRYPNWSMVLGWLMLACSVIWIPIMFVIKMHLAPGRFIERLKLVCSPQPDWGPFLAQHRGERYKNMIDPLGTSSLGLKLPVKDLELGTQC
Experiment: Assay of transport via GlyT-2 transporters: [3H]glycine uptake by stably transfected cultured cells
Conditions: cells stably transfected with human GlyT-2; 50 nM [3H]glycine; ten minutes at 37° C.; read-out: GlyT1 uptake IC50
metric: IC50 (nM)

Past entries and their recorded results:
>  <compound>
CCOc1ccc(NC(=S)NC(C(=O)Nc2c(C)cccc2C)c2ccccc2)c([N+](=O)[O-])c1 (stereo not drawn) [Example E33.1]

>  <unitLabel>
nM

>  <obsValue>
49.2

$$$$
>  <compound>
COc1ccc(NC(=S)NC(C(=O)Nc2c(C)cccc2C)c2ccccc2)c([N+](=O)[O-])c1 (stereo not drawn) [Example E33.6]

>  <unitLabel>
nM

>  <obsValue>
34.4

$$$$
>  <compound>
Cc1ccccc1NC(=O)[C@H](NC(=S)Nc1ccccc1[N+](=O)[O-])c1ccccc1 [Example E4.2]

>  <unitLabel>
nM

>  <obsValue>
77.4

$$$$
>  <compound>
COc1ccc(NC(=S)NC(C(=O)Nc2c(C)cccc2C(C)C)c2ccccc2)c([N+](=O)[O-])c1 (stereo not drawn) [Example E28.1]

>  <unitLabel>
nM

>  <obsValue>
52.2

$$$$

[1] COc1ccc(NC(=S)NC(CC(C)C)C(=O)Nc2c(C)cccc2C)c([N+](=O)[O-])c1 (stereo not drawn) [Example E51.3]
[2] COc1ccc(NC(=S)NC(C(=O)Nc2c(C)cccc2Cl)c2ccccc2)c([N+](=O)[O-])c1 (stereo not drawn) [Example E29.1]
Task: Lab note: record which item had the higher IC50, 1 or 2 . Please reply using the label of the selected record.
Result: 1
(1: 112 nM, 2: 22.8 nM)
